biological target: Sentrin-specific protease 8 (Homo sapiens); experiment: SENP8 protease inhibitors, retest, confirmation, biochemical, luminescence, single concentration (AID 488912); conditions: Recombinant SENP8, Z-RLRGG-aminoluciferin luminescence, 60 min; at 12.5 µM; active compounds read high
Some of the results follow.
The compounds listed here are annotated with their inhibition.

{"compound": "Cc1ccnc(NC(=O)c2ccoc2C)c1", "measurement-target": "Sentrin-specific protease 8 (Homo sapiens)", "reading-unit": "%", "inhibition": 85.8}
{"compound": "COc1ccc(/C=C/c2noc(-c3ccccc3OC(C)=O)n2)cc1", "measurement-target": "Sentrin-specific protease 8 (Homo sapiens)", "reading-unit": "%", "inhibition": 55.1}
{"compound": "O=C(Nc1ccccc1C(=O)Nc1ccncc1)c1ccc([N+](=O)[O-])cc1", "measurement-target": "Sentrin-specific protease 8 (Homo sapiens)", "reading-unit": "%", "inhibition": 47.2}
{"compound": "O=C(Nc1ccccc1F)c1ccc2c(c1)OCO2", "measurement-target": "Sentrin-specific protease 8 (Homo sapiens)", "reading-unit": "%", "inhibition": 72}
{"compound": "COc1cccc(C(=O)Nc2ccc(N3CCCC3)cc2)c1", "measurement-target": "Sentrin-specific protease 8 (Homo sapiens)", "reading-unit": "%", "inhibition": 95}
{"compound": "CC(=O)Nc1cccc(-c2csc(Nc3cccc(C)n3)n2)c1", "measurement-target": "Sentrin-specific protease 8 (Homo sapiens)", "reading-unit": "%", "inhibition": 6.1}
{"compound": "Cc1ccc(N/C=C/C(=O)c2ccccc2)cc1C", "measurement-target": "Sentrin-specific protease 8 (Homo sapiens)", "reading-unit": "%", "inhibition": 34.5}
{"compound": "Brc1ccc2nc(N3CCCC3)sc2c1", "measurement-target": "Sentrin-specific protease 8 (Homo sapiens)", "reading-unit": "%", "inhibition": 83.5}
{"compound": "CN(CC(=O)Nc1ccc(Cl)cc1)C(=O)CNC(=O)c1ccc2ccccc2c1", "measurement-target": "Sentrin-specific protease 8 (Homo sapiens)", "reading-unit": "%", "inhibition": 15.1}
{"compound": "O=C(Nc1ncc([N+](=O)[O-])s1)C1COc2ccccc2O1 (stereo not given)", "measurement-target": "Sentrin-specific protease 8 (Homo sapiens)", "reading-unit": "%", "inhibition": 98.8}
{"compound": "COc1cccc2sc(Nc3nc(C)c(C(C)=O)s3)nc12", "measurement-target": "Sentrin-specific protease 8 (Homo sapiens)", "reading-unit": "%", "inhibition": 51.3}
{"compound": "Cc1ccc(-n2ncc3c(Nc4cccc(C(=O)O)c4)ncnc32)cc1", "measurement-target": "Sentrin-specific protease 8 (Homo sapiens)", "reading-unit": "%", "inhibition": 93.9}
{"compound": "O=C(/C=C/c1ccc2c(c1)OCCO2)c1ccc(O)cc1", "measurement-target": "Sentrin-specific protease 8 (Homo sapiens)", "reading-unit": "%", "inhibition": 68.6}
{"compound": "O=C(Nc1sc2c(c1C(=O)O)CCC2)c1ccccc1F", "measurement-target": "Sentrin-specific protease 8 (Homo sapiens)", "reading-unit": "%", "inhibition": 94.5}
{"compound": "N#Cc1c(N2CCCCC2)nc(N)c2c(N)nc(SCC(=O)O)cc12", "measurement-target": "Sentrin-specific protease 8 (Homo sapiens)", "reading-unit": "%", "inhibition": 11.2}
{"compound": "CN1C(=O)/C(=C\\c2cc(Br)cs2)c2ccccc21", "measurement-target": "Sentrin-specific protease 8 (Homo sapiens)", "reading-unit": "%", "inhibition": 27.2}
{"compound": "CC(=O)Oc1ccc2c(c1)C(=O)c1ccccc1C2=O", "measurement-target": "Sentrin-specific protease 8 (Homo sapiens)", "reading-unit": "%", "inhibition": 38.1}
{"compound": "CCCc1cc(=O)oc2c(C)c(OCC(=O)Nc3ccccn3)ccc12", "measurement-target": "Sentrin-specific protease 8 (Homo sapiens)", "reading-unit": "%", "inhibition": 18.2}
{"compound": "Cc1cccc(/C(N)=N/OC(=O)c2ccccc2Cl)c1", "measurement-target": "Sentrin-specific protease 8 (Homo sapiens)", "reading-unit": "%", "inhibition": 97.7}
{"compound": "Cc1ccccc1Nc1nc(-c2cccnc2)cs1", "measurement-target": "Sentrin-specific protease 8 (Homo sapiens)", "reading-unit": "%", "inhibition": 70.3}
{"compound": "CC(=O)Nc1ccc(/C=N/NC(=O)c2cccs2)cc1", "measurement-target": "Sentrin-specific protease 8 (Homo sapiens)", "reading-unit": "%", "inhibition": 31.2}
{"compound": "Cc1c(C(=O)Nc2ccccn2)oc2ccc(Br)cc12", "measurement-target": "Sentrin-specific protease 8 (Homo sapiens)", "reading-unit": "%", "inhibition": 14.3}
{"compound": "O=[N+]([O-])c1ccc(C=Nc2ccc(Cl)cc2Cl)s1", "measurement-target": "Sentrin-specific protease 8 (Homo sapiens)", "reading-unit": "%", "inhibition": 9.7}
{"compound": "COc1ccc(CNC(=O)COc2ccccc2C(=O)c2cnn(-c3ccccc3)c2)cc1OC", "measurement-target": "Sentrin-specific protease 8 (Homo sapiens)", "reading-unit": "%", "inhibition": 77.7}
{"compound": "Brc1ccc(-c2nnc(-c3ccccc3)o2)o1", "measurement-target": "Sentrin-specific protease 8 (Homo sapiens)", "reading-unit": "%", "inhibition": 25.1}
{"compound": "CCOc1ccc(C(=O)Nc2cccc(SC)c2)cc1", "measurement-target": "Sentrin-specific protease 8 (Homo sapiens)", "reading-unit": "%", "inhibition": -21.9}
{"compound": "Cc1ccc(C(=O)O/N=C(\\N)c2ccccn2)cc1Cl", "measurement-target": "Sentrin-specific protease 8 (Homo sapiens)", "reading-unit": "%", "inhibition": 38.5}
{"compound": "C/C(=N\\NC(=O)CNc1cccc2ccccc12)c1ccc(Br)s1", "measurement-target": "Sentrin-specific protease 8 (Homo sapiens)", "reading-unit": "%", "inhibition": -9.7}
{"compound": "Cc1ccn2cc(-c3nonc3C)cc2c1", "measurement-target": "Sentrin-specific protease 8 (Homo sapiens)", "reading-unit": "%", "inhibition": 47.6}
{"compound": "Cc1nonc1C(=O)N/N=C/c1ccc(O)cc1", "measurement-target": "Sentrin-specific protease 8 (Homo sapiens)", "reading-unit": "%", "inhibition": 99.5}
{"compound": "COc1ccc2nc(Nc3nc4cc5c(cc4s3)OCCO5)sc2c1", "measurement-target": "Sentrin-specific protease 8 (Homo sapiens)", "reading-unit": "%", "inhibition": 20.4}
{"compound": "Cc1cccc(OC(=O)c2sc3ncn(C)c(=O)c3c2C)c1", "measurement-target": "Sentrin-specific protease 8 (Homo sapiens)", "reading-unit": "%", "inhibition": 1.1}
{"compound": "CC(C)N(C(=O)Cn1cc(SCC(=O)N2CCCC2)c2ccccc21)C(C)C", "measurement-target": "Sentrin-specific protease 8 (Homo sapiens)", "reading-unit": "%", "inhibition": -29.2}
{"compound": "N=c1c2c3c(sc2nc2n1CCCCC2)CCCC3", "measurement-target": "Sentrin-specific protease 8 (Homo sapiens)", "reading-unit": "%", "inhibition": 10.9}
{"compound": "O=C(Oc1ccc(-c2nc(-c3ccccn3)no2)cc1)c1ccccc1", "measurement-target": "Sentrin-specific protease 8 (Homo sapiens)", "reading-unit": "%", "inhibition": 4.5}
{"compound": "COc1cccc(C(=O)Nc2ccc(NC(=O)c3ccco3)cn2)c1", "measurement-target": "Sentrin-specific protease 8 (Homo sapiens)", "reading-unit": "%", "inhibition": 53.1}
{"compound": "COc1ccccc1OCc1nc2ccccc2s1", "measurement-target": "Sentrin-specific protease 8 (Homo sapiens)", "reading-unit": "%", "inhibition": 96.7}
{"compound": "O=C(Nc1ccn(Cc2ccccc2)n1)c1n[nH]c([N+](=O)[O-])c1Cl", "measurement-target": "Sentrin-specific protease 8 (Homo sapiens)", "reading-unit": "%", "inhibition": 96.4}
{"compound": "COc1cc(NC(=O)COC(=O)c2ccc([N+](=O)[O-])s2)cc(OC)c1OC", "measurement-target": "Sentrin-specific protease 8 (Homo sapiens)", "reading-unit": "%", "inhibition": 79.5}
{"compound": "Cn1c(NC(=O)c2ccccc2)nc2ccccc21", "measurement-target": "Sentrin-specific protease 8 (Homo sapiens)", "reading-unit": "%", "inhibition": 55.5}
{"compound": "O=C(Nc1ccccc1)Nc1nc2ccccc2s1", "measurement-target": "Sentrin-specific protease 8 (Homo sapiens)", "reading-unit": "%", "inhibition": 17.8}
{"compound": "CCC(=O)NC(Nc1cc(C)ccn1)(C(F)(F)F)C(F)(F)F", "measurement-target": "Sentrin-specific protease 8 (Homo sapiens)", "reading-unit": "%", "inhibition": -4.5}
{"compound": "Nc1ccccc1/C=N\\N=C/c1ccccc1N", "measurement-target": "Sentrin-specific protease 8 (Homo sapiens)", "reading-unit": "%", "inhibition": 52.9}
{"compound": "C/C(=N\\Nc1nc2ccccc2[nH]1)c1cccs1", "measurement-target": "Sentrin-specific protease 8 (Homo sapiens)", "reading-unit": "%", "inhibition": 49.6}
{"compound": "Cc1cnc(NC(=O)c2ccccn2)s1", "measurement-target": "Sentrin-specific protease 8 (Homo sapiens)", "reading-unit": "%", "inhibition": 74.2}
{"compound": "Nc1ccc(-c2nnc(-c3ccccc3)o2)cc1", "measurement-target": "Sentrin-specific protease 8 (Homo sapiens)", "reading-unit": "%", "inhibition": 51.2}
{"compound": "O=C1/C(=C/c2cccs2)CCc2ccccc21", "measurement-target": "Sentrin-specific protease 8 (Homo sapiens)", "reading-unit": "%", "inhibition": 98.3}
{"compound": "CC(=O)N(C1=C(Cl)C(=O)c2ccccc2C1=O)c1ccc(C(=O)O)cc1", "measurement-target": "Sentrin-specific protease 8 (Homo sapiens)", "reading-unit": "%", "inhibition": 81.7}
{"compound": "C/C(=N\\NC(=O)c1ccoc1C)c1ccccc1O", "measurement-target": "Sentrin-specific protease 8 (Homo sapiens)", "reading-unit": "%", "inhibition": 38.5}
{"compound": "COc1ccc(C(=O)Nc2ccc(F)cc2F)cc1", "measurement-target": "Sentrin-specific protease 8 (Homo sapiens)", "reading-unit": "%", "inhibition": -4.2}

Reference source: PubChem BioAssay
